# Tested on: RXF 393 renal
# test.protocol: NCI-60 one-dose screen, 48 h
# conditions: 10 µM unless noted
About 83,000 compounds went through this panel and 20% of them were active in at least one assay; those are over-represented in the sample as a whole. Active and inactive are the calls of the source. How the source made its calls: active means growth percent below 10; inactive means the rest.
Answer with one of the outcomes given here: 1 (yes) for active, 0 (no) for inactive

Prompt: Record request — test call for "CCOC(=O)c1c[nH]n2c(=S)ncnc12"
Response: 0 (no)

---

# System: UACC-257 melanoma
# test.protocol: NCI-60 one-dose screen, 48 h
# conditions: 10 µM unless noted
The panel holds about 83,000 compounds, 20% with a hit somewhere; the sample as a whole holds those more often. Active and inactive are the calls of the source. The calls were made as follows: active = growth percent below 10; inactive = the rest.
Choose one outcome from this list and give only that: Yes (active), No (inactive)

molecule	system.name	label.class
CC(C)C1=NOC(=O)C1=Cc1cn(-c2ccccc2)nc1-c1cccc([N+](=O)[O-])c1	UACC-257 melanoma	No
CC1(C)CC(=O)c2c(ccc(C(=O)C[C@@H](N)CO)c2N)O1	UACC-257 melanoma	No
N#Cc1c(Cl)nc(SCC2CO2)nc1-c1ccccc1 (configuration not stated)	UACC-257 melanoma	No
C=C(C)[C@@H]1CC[C@]2(C(=O)NCCNCCNCCN)CC[C@]3(C)[C@H](CC[C@@H]4[C@@]5(C)CCC(=O)C(C)(C)[C@@H]5CC[C@]43C)[C@@H]12	UACC-257 melanoma	Yes
COc1ccc(C(C(=O)O)c2ccc(OC)cc2)cc1	UACC-257 melanoma	No

Prompt: Test call for this molecule, please: "COc1ccc(C(=O)/C=C/c2ccccn2)c(O)c1"
Response: No

Prompt: Lab log entry: "CC1(C)S[C@@H]2[C@H](NC(=O)[C@H](C(=O)O)c3cccs3)C(=O)N2[C@H]1C(=O)O" — outcome as called in the assay?
Response: No
